Overview of reported protein stability index across a group of variants:
B1: OAS1 (parent)
chain: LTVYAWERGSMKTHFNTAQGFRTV

Variants of: B1
assayComment: protein stability index of a GFP-peptide fusion (GPS, HEK-293T) (PSI 1-6); higher = more stable;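 note: lentivirally expressed fusions sorted by FACS into six bins by GFP to DsRed ratio, PSI derived from sequencing read proportions per bin multiplied by bin number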
details: c terminus: a fixed tail appended

{"mutationAnnotation": "F15Y", "protein stability index": 2.28}
{"mutationAnnotation": "T17K", "protein stability index": 2.48}
{"mutationAnnotation": "R8N", "protein stability index": 2.65}
{"mutationAnnotation": "S10M", "protein stability index": 2.46}
{"mutationAnnotation": "A5S", "protein stability index": 1.91}
{"mutationAnnotation": "T2W", "protein stability index": 2.55}
{"mutationAnnotation": "Q19D", "protein stability index": 4.39}
{"mutationAnnotation": "R8Q", "protein stability index": 2.56}
{"mutationAnnotation": "V24T", "protein stability index": 1.8}
{"mutationAnnotation": "A5T", "protein stability index": 2.75}
{"mutationAnnotation": "G9S", "protein stability index": 2.49}
